Source: the supplement of paper PMC6555819

Tested on: PPARg:RXRa IVT, anti-PPARg (NR concentration 270 nM, RXRa partner concentration 90 nM)
Assay: PBM binding z-score (relative to random genomic background probes); higher = stronger binding; sequences stand for … in GC…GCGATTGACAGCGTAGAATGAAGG
Label rule, in plain words: PBM binding z-score of 3 and up is t, under 3 is f.

Solved entries (count: 2):
- residueString: "GCGACTGGGGCAAAGCAGGTTACGATAAGGTTGG"
  categoryLabel: "t"
- residueString: "AGTCAAAGTTCATCTAGTTAACGTAAGATATGCT"
  categoryLabel: "f"

Test whether the sequence ATCTCTAGGTAACCAAGTTCAGAGAATGCCGAAC records PBM binding z-score of 3 or higher.
f

Test whether the sequence CATACAGCGTCAGCTAGGCCAGAGTAGGGACGGC records PBM binding z-score of 3 or higher.
f

Test whether the sequence CCTTACGGGTCACTGACAGGCTATAGCATTTGGA records PBM binding z-score of 3 or higher.
t

Test whether the sequence ACTAGCAGGCCAAGTTTGGGGCACTCAAACAAAG records PBM binding z-score of 3 or higher.
f

Test whether the sequence TTACCAAGGTGAGAGGTCGTTGATGCACGCCTTG records PBM binding z-score of 3 or higher.
t
